The reported measurements were obtained from ChEMBL document CHEMBL1123801.

Examples of compounds with documented MIC follow.
# Tested on: Aspergillus fumigatus
# assay: Minimum inhibitory concentration (MIC) against Aspergillus fumigatus
# Type: functional
Report only the number, with the unit µg/mL understood.

Some entries whose results are on file:
C=C(c1cc(Cl)ccc1OC(C)c1cccc(Cl)c1)n1ccnc1 (stereo not given) ... 12.5
C/C=C(\c1ccccc1OC(C)c1cccc(Cl)c1)n1ccnc1 (stereo not given) ... 1.6
CCC=C(c1cc(Cl)ccc1OCc1ccc(Cl)cc1Cl)n1ccnc1 ... 0.8
C=C(c1ccccc1OCc1ccc([N+](=O)[O-])cc1)n1ccnc1 ... 6.2
CC(C)=C(c1ccccc1OCCCOc1ccccc1)n1ccnc1 ... 6.2

Give the measured MIC of C=C(c1ccccc1OCCOc1ccc(Cl)cc1)n1ccnc1 .
1.6

Also CC(C)=C(c1ccccc1OCc1ccc(Cl)cc1)n1ccnc1 , if possible.
6.2

Also C=C(c1ccccc1OC(C)c1ccc(OC)cc1)n1ccnc1 (stereo not given) , if possible.
12.5

Also C/C=C(\c1cc(Cl)ccc1OCCC)n1ccnc1 , if possible.
1.6

Also C=C(c1ccccc1OC(C)c1ccc(Cl)cc1)n1ccnc1 (stereo not given) , if possible.
6.2

---

# Test system: Aspergillus fumigatus
# assay: Minimum inhibitory concentration (MIC) against Aspergillus fumigatus
# Format: functional
reportedProperty: MIC

Some entries whose results are on file:
C=C(c1cc(Cl)cc(Cl)c1OCc1ccccc1)n1ccnc1 ... > 100 µg/mL
C/C(CN(C)C)=C(\c1ccccc1OCC(C)C)n1ccnc1 ... > 100 µg/mL
CC(c1ccc(Cl)cc1)(n1ccnc1)n1ccnc1 ... > 100 µg/mL

Now, please, on to the next compound.
Give the measured MIC of C=C(c1c(Cl)ccc(Cl)c1OCc1ccc(Cl)cc1)n1ccnc1 .
> 100 µg/mL

---

# System: Aspergillus fumigatus
# assay: Minimum inhibitory concentration (MIC) against Aspergillus fumigatus
# Assay type: functional
Examples of molecules with documented MIC follow.
Report only the number, with the unit µg/mL understood.

C/C=C(\c1ccccc1OCc1ccc(Cl)cc1)n1ccnc1 ... 3.1
C=C(c1ccc(Cl)cc1OC)n1ccnc1 ... 100

Now, please, on to the next molecule.
Give the measured MIC of C=C(c1ccccc1OCCCC)n1ccnc1 .
1.6
